Values from patent US6191130A

Target: UniProtKB P19327
Sequence (P19327 1-422): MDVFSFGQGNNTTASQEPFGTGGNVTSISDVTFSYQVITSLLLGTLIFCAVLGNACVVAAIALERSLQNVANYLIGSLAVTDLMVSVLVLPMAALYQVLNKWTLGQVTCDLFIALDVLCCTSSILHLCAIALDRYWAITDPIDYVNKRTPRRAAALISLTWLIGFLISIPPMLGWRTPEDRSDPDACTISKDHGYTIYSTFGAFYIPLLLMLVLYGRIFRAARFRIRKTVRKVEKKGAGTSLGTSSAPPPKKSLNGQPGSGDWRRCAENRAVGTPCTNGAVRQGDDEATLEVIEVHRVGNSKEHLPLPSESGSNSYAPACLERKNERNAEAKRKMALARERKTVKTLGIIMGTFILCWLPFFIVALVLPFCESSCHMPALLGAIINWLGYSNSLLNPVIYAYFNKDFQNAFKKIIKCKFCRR
Assay: 5-HT syndrome (serotoninergic syndrome) in the male rat
Format: in vivo, male rat (Sprague-Dawley)
Design: carried out with the male rat (Sprague-Dawley); from tissue; host or cells: whole living rat (Sprague-Dawley)
Settings: FBP, po, read-out: ED50 FBP (flat body posture)
PARAMETER: ED50 (mg/kg)

INSERT INTO results (structure_as_smiles, unit_of_measure, numeric_result) VALUES
  ('COc1ccnc(N2CCN([C@H]3CC[C@H](Oc4cnn(C)c(=O)n4)CC3)CC2)n1', 'mg/kg', 0.31),
  ('Cc1cc(C)nc(N2CCN([C@H]3CC[C@H](n4ncc(=O)n(C)c4=O)CC3)CC2)n1', 'mg/kg', 0.08),
  ('Cn1c(=O)cnn([C@H]2CC[C@H](N3CCN(c4ncccn4)CC3)CC2)c1=O', 'mg/kg', 1.25),
  ('Cn1ncc(O[C@H]2CC[C@H](N3CCN(c4nccc(Cl)n4)CC3)CC2)nc1=O', 'mg/kg', 0.08);
